// provenance: ChEMBL document CHEMBL5291721

Molecular target: Histamine H3 receptor (Homo sapiens, UniProt Q9Y5N1)
Sequence (Q9Y5N1 whole entry): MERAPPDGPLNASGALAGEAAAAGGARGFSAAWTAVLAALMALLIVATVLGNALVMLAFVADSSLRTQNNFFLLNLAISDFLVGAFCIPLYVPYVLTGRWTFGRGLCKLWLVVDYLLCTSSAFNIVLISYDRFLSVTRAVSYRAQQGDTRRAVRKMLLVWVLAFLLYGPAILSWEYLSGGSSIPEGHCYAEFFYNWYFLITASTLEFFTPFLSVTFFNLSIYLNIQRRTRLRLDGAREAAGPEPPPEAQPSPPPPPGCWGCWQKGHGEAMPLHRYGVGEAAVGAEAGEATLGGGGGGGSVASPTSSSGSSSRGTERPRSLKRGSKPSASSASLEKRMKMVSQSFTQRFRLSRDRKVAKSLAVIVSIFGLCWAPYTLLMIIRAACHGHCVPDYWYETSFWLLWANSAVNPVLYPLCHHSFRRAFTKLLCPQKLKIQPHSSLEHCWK
MEASURED_QUANTITY: AC50

Challenge: Requested field: AC50. Item: NCC1(CC(=O)O)CCCCC1
Response given: > 30 µM

Challenge: Requested field: AC50. Item: O=P1(N(CCCl)CCCl)NCCCO1 (centres undefined) [CYCLOPHOSPHAMIDE ANHYDROUS]
Response given: > 30 µM

Challenge: Requested field: AC50. Item: CC(=O)O[C@]1(C(C)=O)CC[C@H]2[C@@H]3CCC4=CC(=O)CCC4=C3[C@@H](c3ccc(N(C)C)cc3)C[C@@]21C [ULIPRISTAL ACETATE]
Response given: > 30 µM

Challenge: Requested field: AC50. Item: Cc1ccc(O)c([C@H](CCN(C(C)C)C(C)C)c2ccccc2)c1
Response given: > 30 µM

Challenge: Requested field: AC50. Item: O=NN(CCCl)C(=O)NCCCl
Response given: > 30 µM

Challenge: Requested field: AC50. Item: Nc1ccc(C(=O)NCC(=O)O)cc1
Response given: > 30 µM

Challenge: Requested field: AC50. Item: CCOC(=O)[C@H](CCc1ccccc1)N[C@@H](C)C(=O)N1Cc2ccccc2C[C@H]1C(=O)O
Response given: > 30 µM

Challenge: Requested field: AC50. Item: [H]/N=C(/N)NS(=O)(=O)c1ccc(N)cc1
Response given: > 30 µM

Challenge: Requested field: AC50. Item: Cc1ccc(Cl)c(Nc2ccccc2C(=O)O)c1Cl
Response given: > 30 µM

###

MEASURED_QUANTITY: AC50

Challenge: // lookup AC50 | system=5-hydroxytryptamine receptor 1A (Homo sapiens, UniProt P08908) | key= C[C@@H](CN1CC(=O)NC(=O)C1)N1CC(=O)NC(=O)C1 [DEXRAZOXANE]; also: assay procedure not described here
Response given: > 30 µM

Challenge: // lookup AC50 | system=5-hydroxytryptamine receptor 1A (Homo sapiens, UniProt P08908) | key= CC1(C)CCC(C)(C)c2cc(NC(=O)c3ccc(C(=O)O)cc3)ccc21 [TAMIBAROTENE]; also: assay procedure not described here
Response given: > 30 µM

Challenge: // lookup AC50 | system=5-hydroxytryptamine receptor 1A (Homo sapiens, UniProt P08908) | key= CCCCC(=O)O[C@H]1CC[C@H]2[C@@H]3CCc4cc(O)ccc4[C@H]3CC[C@]12C [ESTRADIOL VALERATE]; also: assay procedure not described here
Response given: > 30 µM

Challenge: // lookup AC50 | system=5-hydroxytryptamine receptor 1A (Homo sapiens, UniProt P08908) | key= O=P1(N(CCCl)CCCl)NCCCO1 (configuration not stated) [CYCLOPHOSPHAMIDE ANHYDROUS]; also: assay procedure not described here
Response given: > 30 µM

Challenge: // lookup AC50 | system=5-hydroxytryptamine receptor 1A (Homo sapiens, UniProt P08908) | key= CO[C@H]1/C=C/O[C@@]2(C)Oc3c(C)c(O)c4c(c3C2=O)C2=NC3(CCN(CC(C)C)CC3)NC2=C(NC(=O)/C(C)=C\C=C\[C@H](C)[C@H](O)[C@@H](C)[C@@H](O)[C@@H](C)[C@H](OC(C)=O)[C@@H]1C)C4=O [RIFABUTIN]; also: assay procedure not described here
Response given: > 30 µM

Challenge: // lookup AC50 | system=5-hydroxytryptamine receptor 1A (Homo sapiens, UniProt P08908) | key= CC(C)NC[C@H](O)COc1ccc(CCOCC2CC2)cc1 [LEVOBETAXOLOL]; also: assay procedure not described here
Response given: > 30 µM

Challenge: // lookup AC50 | system=5-hydroxytryptamine receptor 1A (Homo sapiens, UniProt P08908) | key= CN1C(C(=O)Nc2ccccn2)=C(OC(=O)/C=C/c2ccccc2)c2ccccc2S1(=O)=O [PIROXICAM CINNAMATE]; also: assay procedure not described here
Response given: 13.4 µM

###

Reported AC50, Histamine H3 receptor (Homo sapiens, UniProt Q9Y5N1).

Challenge: Requested field: AC50. Item: CC(C)(Oc1ccc(Cl)cc1)C(=O)OCCOC(=O)c1cccnc1 [ETOFIBRATE]
Response given: > 30 µM

Challenge: Requested field: AC50. Item: Nc1cc(N2CCCCC2)nc(N)[n+]1[O-] [MINOXIDIL]
Response given: > 10 µM

Challenge: Requested field: AC50. Item: N=C(N)NC(=O)c1nc(Cl)c(N)nc1N [AMILORIDE]
Response given: > 30 µM

Challenge: Requested field: AC50. Item: C[C@H](Nc1ncnc2[nH]cnc12)c1cc2cccc(Cl)c2c(=O)n1-c1ccccc1 [DUVELISIB]
Response given: > 30 µM

Challenge: Requested field: AC50. Item: CN(C)CCOC(c1ccc(Cl)cc1)c1ccccn1 (stereo not given) [CARBINOXAMINE]
Response given: 3.5 µM

Challenge: Requested field: AC50. Item: C[C@H](CS)C(=O)N1CCC[C@H]1C(=O)O [CAPTOPRIL]
Response given: > 10 µM

Challenge: Requested field: AC50. Item: CNCCc1ccccn1 [BETAHISTINE]
Response given: 11 µM

Challenge: Requested field: AC50. Item: CN(Cc1ccc(C(C)(C)C)cc1)Cc1cccc2ccccc12 [BUTENAFINE]
Response given: > 10 µM

Challenge: Requested field: AC50. Item: COc1cc(N)cn[n+]1-c1ccccc1 [AMEZINIUM METILSULFATE]
Response given: > 30 µM

Challenge: Requested field: AC50. Item: CC(C)NCC(O)COc1ccc(CC(N)=O)cc1 (stereo not given) [ATENOLOL]
Response given: > 30 µM

###

Where a SMILES comes first, the peptide text is derived from it.
MEASURED_QUANTITY: AC50

Challenge: // lookup AC50 | system=5-hydroxytryptamine receptor 2C (Homo sapiens, UniProt P28335) | key= CS(=O)(=O)Nc1ccc([N+](=O)[O-])cc1Oc1ccccc1 [NIMESULIDE]; also: assay procedure not described here
Response given: 26 µM

Challenge: // lookup AC50 | system=5-hydroxytryptamine receptor 2C (Homo sapiens, UniProt P28335) | key= CCN(CC)CCn1c(=O)c(Cc2ccc(OC)cc2)nc2ccccc21; also: assay procedure not described here
Response given: 27 µM

Challenge: // lookup AC50 | system=5-hydroxytryptamine receptor 2C (Homo sapiens, UniProt P28335) | key= C[C@H](N)C(=O)N[C@@H](CCC(N)=O)C(=O)O [ALANYL GLUTAMINE] (H-Ala-Gln-OH); also: assay procedure not described here
Response given: > 30 µM

Challenge: // lookup AC50 | system=5-hydroxytryptamine receptor 2C (Homo sapiens, UniProt P28335) | key= C[C@]12C=CC(=O)C=C1CC[C@@H]1[C@@H]2[C@@H](O)C[C@@]2(C)[C@H]1CC[C@]2(O)C(=O)CO; also: assay procedure not described here
Response given: > 30 µM

Challenge: // lookup AC50 | system=5-hydroxytryptamine receptor 2C (Homo sapiens, UniProt P28335) | key= C[C@H](Nc1ncnc2[nH]cnc12)c1cc2cccc(Cl)c2c(=O)n1-c1ccccc1; also: assay procedure not described here
Response given: > 30 µM

Challenge: // lookup AC50 | system=5-hydroxytryptamine receptor 2C (Homo sapiens, UniProt P28335) | key= CC1=C(C(=O)O)N2C(=O)[C@@H](NC(=O)[C@H](N)C3=CCC=CC3)[C@H]2SC1; also: assay procedure not described here
Response given: > 30 µM

Challenge: // lookup AC50 | system=5-hydroxytryptamine receptor 2C (Homo sapiens, UniProt P28335) | key= CCCO[C@H]1[C@@H]([C@@H](COCc2ccc(Cl)cc2)OCc2ccc(Cl)cc2)OC(OCC)[C@@H]1O (stereo partly specified) [CLOBENOSIDE]; also: assay procedure not described here
Response given: > 30 µM

Challenge: // lookup AC50 | system=5-hydroxytryptamine receptor 2C (Homo sapiens, UniProt P28335) | key= CC(C)NCC(O)COc1ccc(CC(N)=O)cc1 (stereo unspecified); also: assay procedure not described here
Response given: > 30 µM

Challenge: // lookup AC50 | system=5-hydroxytryptamine receptor 2C (Homo sapiens, UniProt P28335) | key= CC(C)CN(C[C@@H](O)[C@H](Cc1ccccc1)NC(=O)O[C@H]1CCOC1)S(=O)(=O)c1ccc(N)cc1; also: assay procedure not described here
Response given: > 30 µM

Challenge: // lookup AC50 | system=5-hydroxytryptamine receptor 2C (Homo sapiens, UniProt P28335) | key= CNC1(C)C2CCC(C2)C1(C)C (stereo unspecified); also: assay procedure not described here
Response given: > 30 µM

Challenge: // lookup AC50 | system=5-hydroxytryptamine receptor 2C (Homo sapiens, UniProt P28335) | key= CC(C)(N)Cc1ccccc1; also: assay procedure not described here
Response given: > 30 µM

###

Please respond with reported AC50 for every item in the list.
Biological target: Progesterone receptor (Homo sapiens, UniProt P06401); also: assay procedure not described here
Sequence (P06401 whole entry): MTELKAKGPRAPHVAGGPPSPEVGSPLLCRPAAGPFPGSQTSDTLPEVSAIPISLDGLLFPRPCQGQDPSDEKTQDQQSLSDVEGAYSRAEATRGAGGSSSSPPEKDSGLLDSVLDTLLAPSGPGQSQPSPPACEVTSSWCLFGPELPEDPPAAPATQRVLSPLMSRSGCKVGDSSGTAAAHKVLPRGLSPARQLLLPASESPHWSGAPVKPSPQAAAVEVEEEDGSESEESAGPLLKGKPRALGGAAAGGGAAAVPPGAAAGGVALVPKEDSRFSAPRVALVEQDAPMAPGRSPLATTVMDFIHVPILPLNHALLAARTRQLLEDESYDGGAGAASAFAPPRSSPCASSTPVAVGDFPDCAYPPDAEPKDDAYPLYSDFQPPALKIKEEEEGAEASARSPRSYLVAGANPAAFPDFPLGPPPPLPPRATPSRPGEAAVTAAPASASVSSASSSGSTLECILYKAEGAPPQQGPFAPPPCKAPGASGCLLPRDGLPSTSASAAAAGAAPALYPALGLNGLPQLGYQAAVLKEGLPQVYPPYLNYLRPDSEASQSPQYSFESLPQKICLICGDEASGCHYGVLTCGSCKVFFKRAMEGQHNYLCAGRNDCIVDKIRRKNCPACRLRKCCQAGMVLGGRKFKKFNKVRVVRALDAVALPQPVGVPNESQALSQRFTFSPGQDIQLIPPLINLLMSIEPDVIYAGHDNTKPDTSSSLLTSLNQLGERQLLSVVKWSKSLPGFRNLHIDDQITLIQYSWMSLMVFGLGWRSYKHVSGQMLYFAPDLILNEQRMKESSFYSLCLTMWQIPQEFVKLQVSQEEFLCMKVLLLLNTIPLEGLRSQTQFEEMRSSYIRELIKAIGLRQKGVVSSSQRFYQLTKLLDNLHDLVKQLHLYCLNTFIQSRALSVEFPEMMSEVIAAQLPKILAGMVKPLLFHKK
Assay type: functional

Challenge: Requested field: AC50. Item: CN1CC2c3ccccc3Oc3ccc(Cl)cc3C2C1 (stereo not given)
Response given: > 30 µM

Challenge: Requested field: AC50. Item: NCCCCCC(=O)O
Response given: > 10 µM

Challenge: Requested field: AC50. Item: CC1(C)O[C@@H]2C[C@H]3[C@@H]4CCC5=CC(=O)C=C[C@]5(C)[C@@]4(F)[C@@H](O)C[C@]3(C)[C@]2(C(=O)CO)O1 [TRIAMCINOLONE ACETONIDE]
Response given: 0.02 µM

Challenge: Requested field: AC50. Item: CO/N=C(\C(=O)N[C@@H]1C(=O)N2C(C(=O)[O-])=C(C[n+]3ccc(N)n3CCO)CS[C@H]12)c1csc(N)n1
Response given: > 30 µM

Challenge: Requested field: AC50. Item: N=C(N)NC(=O)c1nc(Cl)c(N)nc1N [AMILORIDE]
Response given: > 30 µM
